Measured MIC by item
- Test system: Escherichia coli
- assay.info: In vitro antibacterial activity of the peptide was tested against Escherichia coli
- Format: functional
Where a SMILES comes first, the peptide text is derived from it. [ ]: non-standard residue; d: D form. Ac6c = NC1(C(=O)O)CCCCC1; Aib = CC(C)(N)C(=O)O
Hey, just the number and the unit after it is fine.

Solved cases (2 shown):
compound	assay.endpoint	reported.value
CC(C)(NC(=O)C(C)(C)NC(=O)[C@H](CCCCN)NC(=O)[C@H](CCCCN)NC(=O)C(C)(C)NC(=O)C(C)(C)NC(=O)[C@H](CCCCN)NC(=O)C(C)(C)NC(=O)C(C)(C)NC(=O)[C@H](CCCCN)NC(=O)[C@H](CCCCN)NC(=O)C(C)(C)NC(=O)C(C)(C)NC(=O)[C@@H](N)CCCCN)C(N)=O (H-K[Aib][Aib]KK[Aib][Aib]K[Aib][Aib]KK[Aib][Aib]-NH2)	MIC	5.5 µM
CC(=O)N[C@@H](CCCCN)C(=O)N[C@@H](CCCCN)C(=O)NC(C)(C)C(=O)NC(C)(C)C(=O)N[C@@H](CCCCN)C(=O)NC(C)(C)C(=O)NC(C)(C)C(=O)N[C@@H](CCCCN)C(=O)N[C@@H](CCCCN)C(=O)NC(C)(C)C(=O)NC(C)(C)C(N)=O (Ac-KK[Aib][Aib]K[Aib][Aib]KK[Aib][Aib]-NH2)	MIC	6.6 µM

Q: Please give measured MIC of the following entry: NCCCC[C@H](NC(=O)[C@H](CCCCN)NC(=O)C1(NC(=O)C2(NC(=O)[C@H](CCCCN)NC(=O)C3(NC(=O)C4(NC(=O)[C@H](CCCCN)NC(=O)[C@@H](N)CCCCN)CCCCC4)CCCCC3)CCCCC2)CCCCC1)C(=O)NC1(C(N)=O)CCCCC1 (H-KK[Ac6c][Ac6c]K[Ac6c][Ac6c]KK[Ac6c]-NH2)
Ans: 5.7 µM

Q: Please give measured MIC of the following entry: CC(C)(NC(=O)C(C)(C)NC(=O)[C@H](CCCCN)NC(=O)[C@H](CCCCN)NC(=O)C(C)(C)NC(=O)C(C)(C)NC(=O)[C@H](CCCCN)NC(=O)C(C)(C)NC(=O)C(C)(C)NC(=O)[C@H](CCCCN)NC(=O)[C@@H](N)CCCCN)C(N)=O (H-KK[Aib][Aib]K[Aib][Aib]KK[Aib][Aib]-NH2)
Ans: 55 µM

Q: Please give measured MIC of the following entry: NCCCC[C@H](NC(=O)[C@H](CCCCN)NC(=O)C1(NC(=O)C2(NC(=O)[C@H](CCCCN)NC(=O)C3(NC(=O)C4(NC(=O)[C@H](CCCCN)NC(=O)[C@H](CCCCN)NC(=O)C5(NC(=O)C6(NC(=O)[C@@H](N)CCCCN)CCCCC6)CCCCC5)CCCCC4)CCCCC3)CCCCC2)CCCCC1)C(=O)NC1(C(N)=O)CCCCC1 (H-K[Ac6c][Ac6c]KK[Ac6c][Ac6c]K[Ac6c][Ac6c]KK[Ac6c]-NH2)
Ans: 4.5 µM

* * *

- Test system: Escherichia coli
- assay.info: In vitro antibacterial activity of the peptide was tested against Escherichia coli
- Format: functional
Where a SMILES comes first, the peptide text is derived from it. [ ]: non-standard residue; d: D form. Ac6c = NC1(C(=O)O)CCCCC1; Api = NC1(C(=O)O)CCNCC1; Aib = CC(C)(N)C(=O)O
Measured MIC by item
Write the value in µM as a bare number.

compound	MIC / µM
NCCCC[C@H](NC(=O)[C@H](CCCCN)NC(=O)C1(NC(=O)C2(NC(=O)[C@H](CCCCN)NC(=O)C3(NC(=O)C4(NC(=O)[C@H](CCCCN)NC(=O)[C@@H](N)CCCCN)CCCCC4)CCCCC3)CCCCC2)CCCCC1)C(=O)NC1(C(=O)NC2(C(N)=O)CCCCC2)CCCCC1 (H-KK[Ac6c][Ac6c]K[Ac6c][Ac6c]KK[Ac6c][Ac6c]-NH2)	5.2

Here is the next item to consider.
Q: State recorded MIC with Escherichia coli, entry CC(C)(N)C(=O)NC(C)(C)C(=O)NC1(C(=O)N[C@@H](CCCCN)C(=O)NC(C)(C)C(=O)NC(C)(C)C(=O)NC2(C(=O)N[C@@H](CCCCN)C(=O)NC(C)(C)C(=O)NC(C)(C)C(N)=O)CCNCC2)CCNCC1 (H-[Aib][Aib][Api]K[Aib][Aib][Api]K[Aib][Aib]-NH2) , no comment.
Ans: 7.7

FYI, the data here is from ChEMBL document CHEMBL1129634.
